biological target: Prostaglandin E2 receptor EP3 subtype (Homo sapiens, UniProt P43115); assay: Displacement of [3H]PGE2 from human EP3 receptor
Sequence (P43115 whole entry): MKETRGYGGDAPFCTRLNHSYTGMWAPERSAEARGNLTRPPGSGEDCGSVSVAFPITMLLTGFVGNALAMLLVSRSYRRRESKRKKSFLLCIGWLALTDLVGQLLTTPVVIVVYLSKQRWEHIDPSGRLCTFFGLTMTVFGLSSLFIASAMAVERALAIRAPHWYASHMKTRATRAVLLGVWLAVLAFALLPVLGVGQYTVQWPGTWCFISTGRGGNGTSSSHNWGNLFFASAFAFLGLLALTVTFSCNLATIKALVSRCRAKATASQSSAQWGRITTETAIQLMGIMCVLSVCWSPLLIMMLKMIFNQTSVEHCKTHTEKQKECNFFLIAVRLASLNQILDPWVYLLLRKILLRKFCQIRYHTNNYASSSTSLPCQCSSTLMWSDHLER
Please go through the items and note down their IC50.
Answers are plain numbers, in nM.

// below: answered compounds
| Record Smiles | Unit Of Measure | IC50 |
| --- | --- | --- |
| COc1ccc(Sc2c[nH]c3cccc(OCC(=O)NS(=O)(=O)c4cc(Cl)c(Cl)s4)c23)cc1 | nM | 0.5 |
| O=C(COc1cccc2[nH]cc(S(=O)(=O)c3ccc(F)cc3Cl)c12)NS(=O)(=O)c1cc(Cl)c(Cl)s1 | nM | 20.2 |
| Cc1ccc(Sc2c[nH]c3cccc(OCC(=O)NS(=O)(=O)c4cc(Cl)c(Cl)s4)c23)c(C)c1 | nM | 1.3 |

Dear colleague, could you send me IC50 for each of the items below? Thanks.
1. O=C(COc1cccc2[nH]cc(Sc3ccccc3Cl)c12)NS(=O)(=O)c1cc(Cl)c(Cl)s1
2. O=C(COc1cccc2[nH]cc(Sc3nc4ccccc4s3)c12)NS(=O)(=O)c1cc(Cl)c(Cl)s1
3. O=C(COc1cccc2[nH]cc(S(=O)(=O)c3ccc(Cl)c(Cl)c3)c12)NS(=O)(=O)c1cc(Cl)c(Cl)s1
4. O=C(COc1cccc2[nH]cc(Sc3ccc4ccccc4c3)c12)NS(=O)(=O)c1cccc(Cl)c1

1. 13.7
2. 7.6
3. 4.7
4. 2

Dear colleague, could you send me IC50 for each of the items below? Thanks.
1. O=C(COc1cccc2[nH]cc(Sc3ccc4ccccc4c3)c12)NS(=O)(=O)c1ccccc1Cl
2. Cc1ccc(S(=O)(=O)c2c[nH]c3cccc(OCC(=O)NS(=O)(=O)c4cc(Cl)c(Cl)s4)c23)c(C)c1
3. COc1ccccc1Sc1c[nH]c2cccc(OCC(=O)NS(=O)(=O)c3cc(Cl)c(Cl)s3)c12

1: 1.4; 2: 5.7; 3: 24

Dear colleague, could you send me IC50 for each of the items below? Thanks.
1. O=C(COc1cccc2[nH]cc(S(=O)(=O)c3nc[nH]n3)c12)NS(=O)(=O)c1cc(Cl)c(Cl)s1
2. NC(=O)Cc1ccc(S(=O)(=O)c2c[nH]c3cccc(OCC(=O)NS(=O)(=O)c4cc(Cl)c(Cl)s4)c23)cc1
3. Cc1nnc(Sc2c[nH]c3cccc(OCC(=O)NS(=O)(=O)c4cc(Cl)c(Cl)s4)c23)s1
4. O=C(COc1cccc2[nH]cc(Sc3ccc(Cl)c(Cl)c3)c12)NS(=O)(=O)c1cc(Cl)c(Cl)s1

236
27.8
36.7
1.3

Dear colleague, could you send me IC50 for each of the items below? Thanks.
1. Cn1c(Sc2c[nH]c3cccc(OCC(=O)NS(=O)(=O)c4cc(Cl)c(Cl)s4)c23)nc2ccccc21
2. Cn1nnnc1S(=O)(=O)c1c[nH]c2cccc(OCC(=O)NS(=O)(=O)c3cc(Cl)c(Cl)s3)c12

2.5
88.4

For the compound "COc1ccc(S(=O)(=O)NC(=O)COc2cccc3[nH]cc(S(=O)(=O)c4ccc5ccccc5c4)c23)cc1" , give its reported IC50.
544
